- Tested on: Hepatocyte
- measurementProtocol: Hepatoprotective activity against D-GaIN/TNFalpha-induced cell death in mouse hepatocyte at 100 uM relative to control
- Assay type: functional, cell-based
- conditionParameters: dose 100 µM
reportedMetric: Activity (%)
Expressed in %, but write only the number.

- CC1(C)CC[C@]2(C(=O)O)CC[C@]3(C)[C@H](C=C[C@@H]4[C@@]5(C)C[C@@H](O)[C@H](O)C(C)(C)[C@@H]5[C@H](O)C[C@]43C)[C@H]2[C@@H]1O: 24.4
- CC1(C)CC[C@]2(C(=O)O[C@@H]3O[C@H](CO)[C@@H](O)[C@H](O)[C@H]3O)CC[C@]3(C)[C@H](C=C[C@@H]4[C@@]5(C)C[C@@H](O)[C@H](O)[C@@](C)(CO)[C@@H]5CC[C@]43C)[C@H]2[C@@H]1O: 8
- CC1(C)CC[C@]2(C(=O)O)CC[C@]3(C)[C@H](C=C[C@@H]4[C@@]5(C)C[C@@H](O)[C@H](O)[C@@](C)(CO)[C@@H]5CC[C@]43C)[C@H]2[C@@H]1O: 8

Give the reported Activity for this compound. "C[C@@]1(CO)CC[C@]2(C(=O)O[C@@H]3O[C@H](CO)[C@@H](O)[C@H](O)[C@H]3O)CC[C@]3(C)[C@H](C=C[C@@H]4[C@@]5(C)C[C@@H](O)[C@H](O)[C@@](C)(CO)[C@@H]5CC[C@]43C)[C@H]2C1"
8

Dear colleague, please send me the reported Activity for "CC1(C)CC[C@]2(C(=O)O)CC[C@]3(C)[C@H](C=C[C@@H]4[C@@]5(C)C[C@@H](O)[C@H](O)[C@](C)(CO)[C@@H]5CC[C@]43C)[C@H]2C1" when you can.
108.4

Report measured Activity; entry is "CC1(C)CC[C@]2(C(=O)O)CC[C@]3(C)[C@H](C=C[C@@H]4[C@@]5(C)C[C@@H](O)[C@H](O)C(C)(C)[C@@H]5CC[C@]43C)[C@H]2[C@@H]1O"
32.9

###

Overview of reported Activity across a group of molecules:
- Tested on: HepG2
- measurementProtocol: Hepatoprotective activity against H2O2-induced cell death in human HepG2 cells assessed as reduction in ALT level at 20 uM preincubated for 1 hr followed by H2O2-stimulation and measured after 24 hrs
- Assay type: functional
Respond numerically; units are U/L and should not be typed.

Examples with answers:
- C=C(C)[C@@H]1C[C@H](O)C2=C(C(=O)C[C@]3(C)[C@@H]([C@H](C)CCC(=O)OC)CC[C@@]23C)[C@@]1(C)CCC(=O)OC: 16.06
- C=C(C)[C@@H]1C[C@H](O)C2=C(C(=O)C[C@]3(C)[C@@H]([C@H](C)CCC(=O)O)CC[C@@]23C)[C@@]1(C)CCC(=O)O: 16.06
- CC(C)=CC[C@@H](O)[C@@H](C)[C@H]1CC[C@@]2(C)C3=CC[C@H]4C(C)(C)[C@@H](O)CC[C@]4(C)C3=CC[C@]12C: 23.22

Turning to the following molecule.
Specify the recorded Activity for "C=C(C)[C@@H]1C[C@H](O)C2=C(C(=O)C[C@]3(C)[C@@H]([C@H](C)CCC(=O)O)CC[C@@]23C)[C@@]1(C)CCC(=O)OC" , system: HepG2.
16.06
